Below, each of the compounds is paired with its reported T/C value.
System: B6C3F1 mice, ip Sarcoma M5076, median survival T/C
TEST_SUMMARY: NCI In Vivo Anticancer Drug Screen. Data for tumor model Sarcoma M5076 (intraperitoneal) in B6C3F1 mice
APPLIED_CONDITIONS: endpoint: median survival time; dose: 1200.0 mg/kg/injection; schedule: Q04DX004 (ip); vehicle: saline; higher = longer survival
Toxic doses and inconclusive results are not listed.
ASSAY_METRIC: T/C

>>> df
                                   compound            result
0  NC(CCC(=O)NC(CS)C(=O)NCC(=O)O)C(=O)O (centres undefined)   90 % of control
1  O=CC(O)C(O)C(O)C(O)CO (centres undefined)   93 % of control
2  NC(Cn1ccc(=O)c(O)c1)C(=O)O (centres undefined)  113 % of control
3                       NCc1cc(O)c(O)c(O)c1  104 % of control

---

Below, each of the compounds is paired with its reported T/C value.
Test system: B6C3F1 mice, ip Sarcoma M5076, median survival T/C
TEST_SUMMARY: NCI In Vivo Anticancer Drug Screen. Data for tumor model Sarcoma M5076 (intraperitoneal) in B6C3F1 mice
APPLIED_CONDITIONS: endpoint: median survival time; dose: 100.0 mg/kg/injection; schedule: Q04DX004 (ip); vehicle: saline with Tween-80; higher = longer survival
Inconclusive results and toxic doses are left out.
ASSAY_METRIC: T/C

>>> df
                                   compound  assay_metric            result
0  C[n+]1c(-c2ccc(/C=N/NC(=O)c3ccc(C(=O)N/N=C/c4ccc(-c5cn6ccccc6[n+]5C)cc4)cc3)cc2)cn2ccccc21           T/C   98 % of control
1               CCc1c(C)c(SC)n(C)c(=O)c1C#N           T/C  111 % of control
2  CC(=O)Nc1ccc(Nc2ccc(C(=C3C=CC(=[N+](C)CCC#N)C=C3)c3ccc(N(C)CCC#N)cc3)cc2)cc1           T/C  100 % of control
3  NCCSC(C[N+](=O)[O-])c1ccccc1Cl (stereo not given)           T/C  109 % of control
4             C/C([O-])=c1\c(C)nn2ccc[n+]12           T/C  103 % of control
5  COc1cc2c(c3c1/c(=N/N(C)C)c1ccccc1n3C)C=CC(C)(C)O2           T/C  110 % of control
6   O=[N+]([O-])c1ccc(C=C2C=CN(CCO)C=C2)cc1           T/C  106 % of control
7  CCN(CC)c1ccc2[nH]c3c(C(N)=O)cc(=O)c(=O)c=3oc2c1           T/C  106 % of control
8     CCc1n[nH]c(CC)c1CCCCCCOc1ccc(OC)cc1Cl           T/C   97 % of control
9  O=C(O)c1nn(-c2ccccc2-c2n[nH]c(=O)[nH]c2=O)c(=O)[nH]c1=O           T/C  100 % of control

---

Tested on: B6C3F1 mice, ip Sarcoma M5076, median survival T/C
TEST_SUMMARY: NCI In Vivo Anticancer Drug Screen. Data for tumor model Sarcoma M5076 (intraperitoneal) in B6C3F1 mice
APPLIED_CONDITIONS: endpoint: median survival time; dose: 200.0 mg/kg/injection; schedule: Q04DX004 (ip); vehicle: distilled water + Tween-80; higher = longer survival
Inconclusive results and toxic doses are left out.
ASSAY_METRIC: T/C

In [3]: df
Out[3]:
                                   compound            result
0  N#Cc1c(-c2ccccc2)c(-c2ccccc2)nn(CC(=O)O)c1=O   97 % of control
1  Nc1nc2c(ncn2C2CC3[O][Sn]([c]4ccccc4)([c]4ccccc4)[O]CC3O2)c(=O)[nH]1 (stereo unspecified)   92 % of control
2  O=c1ccn(C2CC3[O][Sn]([c]4ccccc4)([c]4ccccc4)[O]CC3O2)c(=O)[nH]1 (stereo unspecified)  103 % of control
3  Nc1ccn(C2CC3[O][Sn]([c]4ccccc4)([c]4ccccc4)[O]CC3O2)c(=O)n1 (stereo unspecified)  100 % of control
4  COC1C(CO)OC(n2c3c(Cl)cccc3c3c4c(c5c6cccc(Cl)c6[nH]c5c32)C(=O)NC4=O)C(O)C1O (stereo unspecified)  118 % of control
5  N#Cc1c(-c2ccc(F)cc2)c(-c2ccc(F)cc2)nn(CCO)c1=O  123 % of control
